# assay notes: small molecules captured by biotinylated probe aFGF2 – biochemical, small-molecule microarray, fluorescence 635/667, stem cell growth factor project, primary screen (AID 1067);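 also: measures binding of biotinylated aFGF2 protein to printed compounds on slides; z-score merges feature fluorescence and signal-to-noise across triplicate slides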
# condition summary: higher = more signal
quantity: composite z-score

[
  {
    "molecule": "COC(=O)c1nc2oc1CC[C@@H](CO)NC(=O)N(C)Cc1cn(nn1)C[C@H](Cc1ccccc1)NC2=O",
    "result": -0.0982
  },
  {
    "molecule": "C=CCN1Cc2ccccc2C[C@]2(N=C(c3ccc(OCCCO)cc3)O[C@@H]2c2ccccc2)C1=O",
    "result": -0.0883
  },
  {
    "molecule": "O=C1O[C@@H](c2ccccc2)[C@@H](c2ccccc2)N2[C@@H](c3ccc(O)cc3)[C@]3(C(=O)Nc4ccccc43)[C@@H](C(=O)NC[C@H](O)c3ccccc3)[C@H]12",
    "result": -0.141
  },
  {
    "molecule": "CC1CC/C=C\\[C@H]2OC34C=CCN(c5ccc6ccccc6c5)C(=O)[C@H]3N(CCCCCO)C(=O)[C@@H]4C2C(=O)O1 (some centres not stated)",
    "result": -0.159
  },
  {
    "molecule": "COC(=O)[C@@]1(Cc2ccc(F)cc2)[C@H]2c3cc(C(=O)N(C)C)n(CCCNc4ccc(C(F)(F)F)cc4Cl)c3C[C@H]2CN1C(=O)c1ccccc1",
    "result": 0.311
  },
  {
    "molecule": "CO[C@H]1O[C@H](CO)[C@@H](OC(=O)Nc2ccc(C(F)(F)F)cc2)[C@H](OC(=O)Nc2ccccc2)[C@@H]1OC(=O)Nc1ccccc1",
    "result": 0.113
  },
  {
    "molecule": "C=CC[C@@]1(C(N)=O)N=C(c2ccc(OCCCO)cc2)O[C@@H]1c1ccccc1N=[N+]=[N-]",
    "result": 0.069
  }
]

====

# assay notes: JC-1 mitochondrial signal, unstimulated myeloma cells – cell-based, JC-1 fluorescence, RPMI8226, 24 h, 100 nL compound, profiling panel (AID 1169); also: test concentration not given here
# condition summary: JC-1 mitochondrial potential fluorescence, higher = more signal
quantity: z-score

[
  {
    "compound": "C=CCC(OC(C)=O)[C@@H]1[C@@H](N(Cc2ccc(-c3ccccc3)cc2)C(=O)c2ccc(C)cc2)c2cc(OCCCO)ccc2N1C(=O)Cc1ccc(OC)cc1 (some centres not stated)",
    "measured number": 0.768
  },
  {
    "compound": "O=C1OCC=C[C@H]2OC34C=CCN(CCN5CCOCC5)C(=O)[C@H]3N(CCCCCCO)C(=O)[C@@H]4[C@@H]12 (some centres not stated)",
    "measured number": 1.11
  },
  {
    "compound": "CC(C)(C)OC(=O)CC[C@]1(C(=O)NCC(O)CO)N=C(c2ccc(OCCCO)cc2)O[C@H]1c1ccccc1CN=[N+]=[N-] (some centres not stated)",
    "measured number": 0.574
  },
  {
    "compound": "CN1C(=O)C2C=CC(C(O)c3ccccc3)N(NC(=O)OC(C)(C)C)C2C1=O (configuration not stated)",
    "measured number": -0.306
  },
  {
    "compound": "CO[C@H]1O[C@H](CO)[C@@H](OC(=O)Nc2ccc3c(c2)OCO3)[C@H](OC(=O)Nc2ccc3c(c2)OCO3)[C@H]1OC(=O)Nc1ccc2c(c1)OCO2",
    "measured number": 0.0119
  },
  {
    "compound": "O=C1OCCC/C=C\\[C@H]2OC34C=CCN(CCN5CCOCC5)C(=O)[C@H]3N(CCO)C(=O)[C@@H]4C12 (some centres not stated)",
    "measured number": -0.802
  },
  {
    "compound": "C=CCOC(=O)[C@@H]1[C@H]2C(=O)O[C@H](c3ccccc3)[C@H](c3ccccc3)N2[C@H](c2ccc(OCCOC(=O)[C@H]3C[C@H]4C(=O)N[C@@H](CC(C)C)C(=O)N4[C@H]3c3cccc(OCCO)c3)cc2)[C@@]12C(=O)Nc1ccc(I)cc12",
    "measured number": -0.946
  },
  {
    "compound": "O=C1C2C=CC(C(O)CCc3ccccc3)N(Nc3ccccc3)C2C(=O)N1c1ccccc1 (configuration not stated)",
    "measured number": -0.278
  },
  {
    "compound": "COc1ccc([Si](C)(C)[C@H]2[C@H](CCO)O[C@@]3(C(=O)N(Cc4cccc(N5C(=O)c6cccc7cccc5c67)c4)c4ccccc43)[C@@H]2C)cc1",
    "measured number": -1.02
  },
  {
    "compound": "CCCNC(=O)[C@@]1(c2ccc([N+](=O)[O-])cc2)CC(=O)N(CC23CC4CC(CC(C4)C2)C3)[C@@H]1c1ccc(CO)cc1I",
    "measured number": -0.872
  },
  {
    "compound": "COCC1C2CC[C@H]3C(OCc4ccc(F)cc4C(F)(F)F)OC[C@]4(C)[C@H]3C2=C(CN4C(=O)OC(C)(C)C)[C@H](C)C1COC (some centres not stated)",
    "measured number": -0.507
  },
  {
    "compound": "[N-]=[N+]=Nc1ccccc1[C@@H]1OC(c2ccc(OCCCO)cc2)=N[C@]1(CCS(=O)(=O)c1ccccc1)C(=O)O",
    "measured number": -0.373
  },
  {
    "compound": "O=C1c2ccccc2[C@](Cc2ccccc2I)(C(=O)O)[C@H](c2ccc(CO)cc2)N1Cc1ccccc1C(F)(F)F",
    "measured number": -0.832
  },
  {
    "compound": "CC(=O)NCCCC[C@@H]1NC(=O)[C@@H]2C[C@H](C(=O)NCCCCCC[N+](C)(C)C)[C@H](c3cccc(OCCO)c3)N2C1=O",
    "measured number": 0.226
  },
  {
    "compound": "CCOC(=O)C=Cc1cccc(OC)c1O",
    "measured number": -0.149
  },
  {
    "compound": "NC(=O)[C@]1(Cc2ccccc2)N=C(c2ccc(OCCCO)cc2)O[C@@H]1c1ccccc1",
    "measured number": -0.775
  },
  {
    "compound": "[N-]=[N+]=Nc1ccccc1[C@@H]1OC(c2ccc(OCCCO)cc2)=N[C@]1(CCS(=O)(=O)c1ccccc1)C(=O)N1CCCCC1",
    "measured number": -0.881
  },
  {
    "compound": "COCCCNC(=O)[C@@]1(Cc2ccccc2I)c2ccccc2C(=O)N(Cc2ccccc2)[C@H]1c1ccc(CO)cc1",
    "measured number": -0.136
  },
  {
    "compound": "COCCOC(=O)N1C(=O)[C@@]2(c3cc(C#CCCO)ccc31)[C@H](c1ccc(O)cc1)N1[C@H](c3ccccc3)[C@H](c3ccccc3)OC(=O)[C@H]1[C@@H]2C(=O)N1CCCCCCC1",
    "measured number": 0.242
  },
  {
    "compound": "O=C1OCC=C[C@H]2OC34C=CCN(c5ccc(Cl)cc5)C(=O)[C@H]3N(CCCO)C(=O)[C@@H]4[C@@H]12 (some centres not stated)",
    "measured number": -0.454
  },
  {
    "compound": "CCCC[C@H]1OB(O)C[C@H]2C1=C(C)Cn1c(=O)n(-c3ccccc3)c(=O)n12",
    "measured number": -0.903
  },
  {
    "compound": "COCCOC(=O)N1C(=O)[C@@]2(c3cc(C#CC4=CCCCC4)ccc31)[C@H](C(=O)N1CCN(c3ncccn3)CC1)[C@H]1C(=O)O[C@H](c3ccccc3)[C@H](c3ccccc3)N1[C@@H]2c1ccc(OCCO)cc1",
    "measured number": -0.606
  },
  {
    "compound": "O=C(NCC(O)CO)[C@@]1(Cc2ccccc2)N=C(c2ccc(OCCCO)cc2)O[C@H]1c1ccccc1 (some centres not stated)",
    "measured number": -0.392
  },
  {
    "compound": "NC(=O)NCC#Cc1ccc2c(c1)[C@]1(C(=O)N2)[C@H](C(=O)NC[C@H](O)c2ccccc2)[C@H]2C(=O)O[C@H](c3ccccc3)[C@H](c3ccccc3)N2[C@@H]1c1ccccc1OCCO",
    "measured number": -0.0808
  },
  {
    "compound": "COc1ccc([Si](C)(C)[C@@H]2[C@@H](CC(=O)N3Cc4ccccc4C[C@H]3CO)O[C@]3(C(=O)N(Cc4cccc(N5C(=O)COc6ccccc65)c4)c4ccccc43)[C@H]2C)cc1",
    "measured number": -1.17
  },
  {
    "compound": "CC(=O)NCCCC[C@@H]1NC(=O)[C@@H]2C[C@H](C(=O)NCc3ccc(F)cc3)[C@H](c3ccc(O)cc3)N2C1=O",
    "measured number": 0.0286
  },
  {
    "compound": "COc1ccc([Si](C)(C)[C@@H]2[C@@H](CCO)O[C@]3(C(=O)N(Cc4ccccc4)c4ccc(N(C=O)c5ccccc5)cc43)[C@H]2C)cc1",
    "measured number": -0.858
  }
]
